- target: UniProt Q3BCU0
- Sequence (Q3BCU0 whole entry): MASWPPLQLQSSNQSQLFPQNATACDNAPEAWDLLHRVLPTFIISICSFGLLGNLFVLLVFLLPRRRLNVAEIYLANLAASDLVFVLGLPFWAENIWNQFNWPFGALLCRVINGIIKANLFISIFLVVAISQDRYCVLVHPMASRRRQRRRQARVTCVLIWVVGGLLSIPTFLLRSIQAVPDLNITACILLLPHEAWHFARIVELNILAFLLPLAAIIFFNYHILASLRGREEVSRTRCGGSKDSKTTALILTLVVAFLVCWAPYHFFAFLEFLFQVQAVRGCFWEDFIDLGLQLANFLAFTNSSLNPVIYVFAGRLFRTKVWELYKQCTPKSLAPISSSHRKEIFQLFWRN
- assay_remarks: Antagonist activity at Cynomolgus monkey bradykinin B1 receptor expressed in CHO cells assessed as calcium transient by FLIPR assay
measured_quantity: IC50 (nM)

CN(Cc1ccc(CN2CCCCC2)cc1)C(=O)CNC(=O)c1nc2ccccc2n1Cc1ccccc1 : 196
O=C(CCNC(=O)c1nc2ccccc2n1Cc1ccccc1)Nc1ccc2cn[nH]c2c1 : 524
CCN(CC(=O)N1CCN(c2ccncc2)CC1)C(=O)c1nc2ccccc2n1Cc1ccccc1 : 278

a: CN(Cc1ccc(C2=NCCN2)cc1)C(=O)C1CCN(C(=O)c2nc3ccccc3n2Cc2ccccc2)CC1
b: Cc1nc(-c2ccc(CN(C)C(=O)CNC(=O)c3nc4ccccc4n3Cc3ccccc3)cc2)no1
c: CN(Cc1ccc(C2=NCCN2)cc1)C(=O)CNC(=O)c1nc2ccccc2n1Cc1ccccc1
d: CN(Cc1ccc(-c2ncccn2)cc1)C(=O)CNC(=O)c1nc2ccccc2n1Cc1ccccc1
Task: Arrange items by their IC50 values in increasing order. List the labels according to the requested ordering.
Result: c, a, d, b

A: CN(Cc1ccc(-c2ccccn2)cc1)C(=O)CNC(=O)c1nc2ccccc2n1Cc1ccccc1
B: CCN(CC(=O)N1CCN(C2CCN(C)CC2)CC1)C(=O)c1nc2ccccc2n1Cc1ccccc1
C: CN(CC(=O)N1CCN(c2ccncc2)CC1)C(=O)c1nc2ccccc2n1Cc1ccccc1
Task: Sort entries by IC50 from minimum to maximum value. The reply should contain the labels ordered as requested.
Result: B, A, C

The origin of these recorded values is ChEMBL document CHEMBL1144173.
